Provenance of the data: the RNAGym collection of RNA variant scans (doi:10.1093/nar/gkz1192)

B1: CPEB3 Ribozyme (parent)
chain: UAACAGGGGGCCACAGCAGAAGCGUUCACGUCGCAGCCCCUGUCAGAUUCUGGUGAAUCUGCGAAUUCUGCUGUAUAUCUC

Variants of: B1
Experiment: self-cleavage, relative activity (ratio to wild type); higher = more cleavage; in vitro, sequencing
Would you mind telling me the reported self-cleavage of each entry?
Write the value as a bare number.

-- ask Using the record for A21U A57G , report its self-cleavage.
-- reply 0.33

-- ask Using the record for C11G C71U , report its self-cleavage.
-- reply 0.16

-- ask Using the record for C23G U26A , report its self-cleavage.
-- reply 0.1

-- ask Using the record for C71G A75G , report its self-cleavage.
-- reply 0.62

-- ask Using the record for C40G U48C , report its self-cleavage.
-- reply 0.13

-- ask Using the record for A2G G53A , report its self-cleavage.
-- reply 0.66

-- ask Using the record for A64U G70U , report its self-cleavage.
-- reply 0.26

-- ask Using the record for G63U U69A , report its self-cleavage.
-- reply 0.57

-- ask Using the record for U51C U74G , report its self-cleavage.
-- reply 1.21

-- ask Using the record for A2C U26C , report its self-cleavage.
-- reply 0.55

-- ask Using the record for G9A A35U , report its self-cleavage.
-- reply 0.18

-- ask Using the record for U74G U76C , report its self-cleavage.
-- reply 1.16

-- ask Using the record for G8U C29U , report its self-cleavage.
-- reply 0.25

-- ask Using the record for A2U U66C , report its self-cleavage.
-- reply 0.38

-- ask Using the record for U67C U72A , report its self-cleavage.
-- reply 0.33

-- ask Using the record for A35G U41A , report its self-cleavage.
-- reply 0.44

-- ask Using the record for A3C U41C , report its self-cleavage.
-- reply 1.02

-- ask Using the record for U41G C71G , report its self-cleavage.
-- reply 0.33

-- ask Using the record for U51C G61A , report its self-cleavage.
-- reply 0.71

-- ask Using the record for U43A A77G , report its self-cleavage.
-- reply 1.2

-- ask Using the record for U60G U67C , report its self-cleavage.
-- reply 0.13

-- ask Using the record for G36U U48C , report its self-cleavage.
-- reply 0.17
